# Procedure details: qHTS of pediatric cancer cell lines to identify multiple opportunities for drug repurposing: Primary screen for TC32 cells (AID 1347089); also: nearly all actives have a fitted effect of over 60% in size
# Condition parameters: TC32 Ewing sarcoma viability, CellTiter-Glo luminescence, 48 h; series mostly up to 45.8 µM
# Description: Drug repurposing or repositioning has been offered as a strategy for drug development in oncology programs. […] [1] Shen, M et al. Quantitative high-throughput phenotypic screening of pediatric cancer cell lines identifies multiple opportunities for drug repurposing. […] Cells were assayed in growth media at a density of 500-1,000 cells/well. […] After a 15min incubation at room temperature, samples were analyzed for luminescence intensity using a ViewLux High-throughput CCD imager equipped with clear filters.
Records with an inconclusive call do not appear. Calls of active or inactive are those of the source. Calls follow the shape of the dose curve; as a rule, active = well fitted cell-killing curve with a large enough effect; inconclusive = small, poorly fitted or top-dose-only effect; inactive = flat fitted curve, though single readings scatter.
Use one of these outcomes when replying: Yes for active, No for inactive

>>> group("CCCCC(=O)O[C@]1(C(=O)CO)[C@@H](C)C[C@H]2[C@@H]3CCC4=CC(=O)C=C[C@]4(C)[C@@]3(F)[C@@H](O)C[C@@]21C")
"No"
>>> group("C[C@H]1C[C@H]2[C@@H]3CCC4=CC(=O)C=C[C@]4(C)[C@@H]3C(=O)C[C@]2(C)[C@@]1(O)C(=O)CO")
"No"
>>> group("CCc1nc(-c2cccc(C)c2)c(-c2ccnc(NC(=O)c3ccccc3)c2)s1")
"No"
>>> group("C[C@H]1[C@@H](OC(=O)CCC(=O)O)O[C@@H]2O[C@@]3(C)CC[C@@H]4[C@H](C)CC[C@@H]1[C@@]24OO3")
"Yes"
>>> group("COC[C@H](NC(=O)c1cnc(C)s1)C(=O)N[C@@H](COC)C(=O)N[C@@H](Cc1ccccc1)C(=O)[C@@]1(C)CO1")
"Yes"
>>> group("C[C@@H]1C(=O)O[C@H]2CC34[C@H]5C[C@@H](C(C)(C)C)C36[C@H](OC(=O)[C@@H]6O)O[C@@]4(C(=O)O5)[C@]21O (some centres not stated)")
"No"

Inquiry: What classification did COC(=O)[C@H](CCCN=C(N)N)NS(=O)(=O)c1ccc(C)cc1 end up with in this test?
Reply text: No

Inquiry: What classification did C=C[C@@H]1CN2CCC1C[C@H]2[C@H](O)c1ccnc2ccc(OC)cc12 (some centres not stated) end up with in this test?
Reply text: No

Inquiry: What classification did C[N+]1(C)[C@@H]2C[C@@H](OC(=O)C(O)(c3cccs3)c3cccs3)C[C@H]1[C@@H]1O[C@@H]12 end up with in this test?
Reply text: No

Inquiry: What classification did O=C(C[C@@H]1CC=CCCC(=O)O[C@H](c2ccccc2)CNC1=O)NCc1ccc(Cl)cc1 end up with in this test?
Reply text: No

Inquiry: What classification did O=C(c1ccc(F)cc1)N1CCC[C@H](c2nc(-c3ccc(F)cc3)no2)C1 end up with in this test?
Reply text: No

Inquiry: What classification did CON=C(C(=O)N[C@@H]1C(=O)N2C(C(=O)O)=C(CSC(=O)c3ccco3)CS[C@H]12)c1csc(N)n1 end up with in this test?
Reply text: No

Inquiry: What classification did CC(C)c1cc(C(C)C)c(CC(=O)NS(=O)(=O)Oc2c(C(C)C)cccc2C(C)C)c(C(C)C)c1 end up with in this test?
Reply text: No

Inquiry: What classification did CC(C)C[C@H](NC(=O)[C@@H](NC(=O)c1cccc(-c2ccccc2)n1)[C@@H](C)O)B(O)O end up with in this test?
Reply text: Yes
